# Tested on: 941728-121-R-J1-PDC complex spheroid viability;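 also: spheroids exposed to compounds for 7 days before readout; 100% = DMSO vehicle control viability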
# ASSAY EXPLANATION: Anticancer human tumor 941728-121-R-J1-PDC patient-derived lung adenocarcinoma cell line growth inhibition [RAS]
# MEASUREMENT SETUP: second compound 0.000949 µM; first compound 3.16 µM; hits give low values
This listing pairs molecules with measured viability, T/C.
# number only, unit % dropped from output

Solved entries:
MOLECULE	ASSAY VALUE
CC(C)NCC(C(=O)N1CCN(c2ncnc3c2C(C)CC3O)CC1)c1ccc(Cl)cc1 (centres undefined) + CCn1c(-c2cc(N3CCN(C)CC3)cnc2C(C)OC)c2c3cc(ccc31)-c1csc(n1)CC(NC(=O)C1CC1C)C(=O)N1CCCC(N1)C(=O)OCC(C)(C)C2	19
CCC(CC)c1cc(NC2CCC(N)C2)n2nccc2n1 (centres undefined) + CCn1c(-c2cc(N3CCN(C)CC3)cnc2C(C)OC)c2c3cc(ccc31)-c1csc(n1)CC(NC(=O)C1CC1C)C(=O)N1CCCC(N1)C(=O)OCC(C)(C)C2	15
NC1c2ccccc2OC12CCN(c1cnc3c(N4CCCc5ncccc54)n[nH]c3n1)CC2 (centres undefined) + CCn1c(-c2cccnc2C(C)OC)c2c3cc(ccc31)N1CCOC(CC(NC(=O)C(C(C)C)N(C)C(=O)C3(F)CCN(C(=O)C#CC(C)(C)N(C)C)CC3)C(=O)N3CCCC(N3)C(=O)OCC(C)(C)C2)C1	16.6

Q. Look up and report measured viability, T/C (941728-121-R-J1-PDC complex spheroid viability) for the following molecule: CC1(O)CCCC1n1c(=O)c(C(F)F)cc2cnc(NC3CCN(S(C)(=O)=O)CC3)nc21 (centres undefined) + CCn1c(-c2cc(N3CCN(C)CC3)cnc2C(C)OC)c2c3cc(ccc31)-c1csc(n1)CC(NC(=O)C1CC1C)C(=O)N1CCCC(N1)C(=O)OCC(C)(C)C2
A. 34.9

Numbers sourced from PubChem BioAssay AID2060896.
